# Assay system: MOR (Homo sapiens)
# Construct: expressed in transfected cells; membranes prepared from them
# Sequence (P35372 whole entry): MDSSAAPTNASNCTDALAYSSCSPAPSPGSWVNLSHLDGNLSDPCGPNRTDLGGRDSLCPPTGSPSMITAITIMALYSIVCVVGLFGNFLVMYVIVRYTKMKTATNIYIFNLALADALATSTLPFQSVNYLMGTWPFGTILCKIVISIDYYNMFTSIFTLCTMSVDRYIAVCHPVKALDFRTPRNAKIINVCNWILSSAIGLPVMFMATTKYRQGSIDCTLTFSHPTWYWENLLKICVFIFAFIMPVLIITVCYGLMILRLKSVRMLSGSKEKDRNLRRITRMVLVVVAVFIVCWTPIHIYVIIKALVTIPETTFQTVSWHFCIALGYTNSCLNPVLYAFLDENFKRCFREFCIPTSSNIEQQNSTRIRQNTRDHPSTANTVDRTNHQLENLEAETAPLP
# Measurement description: Opioid receptor binding assay, MOR ([3H]DAMGO)
# Particulars: MOR, MaxDose 10000 nM
Attribute measured: %Inh@MaxDose

Record excerpt, results attached:
C=C1CC[C@@]2(O)C3Cc4ccc(OCOC(=O)CCCCCCCCCCCCC)c5c4[C@@]2(CCN3CC2CC2)[C@H]1O5 = 93.7%
C=C1CC[C@@]2(O)C3Cc4ccc(OCOC(=O)CCCCCCCCCCCCCCC)c5c4[C@@]2(CCN3CC2CC2)[C@H]1O5 = 102.3%
C=C1CC[C@@]2(O)C3Cc4ccc(OC(=O)CCCCCCCCCCCCCCCCCCCCC)c5c4[C@@]2(CCN3CC2CC2)[C@H]1O5 = 92.7%
C=C1CC[C@@]2(O)C3Cc4ccc(OC(=O)OCCCCCCCCCCCCCCC)c5c4[C@@]2(CCN3CC2CC2)[C@H]1O5 = 75.9%

Memo: `C=C1CC[C@@]2(O)C3Cc4ccc(OCOC(=O)OCCCCCCCCCCCCCC)c5c4[C@@]2(CCN3CC2CC2)[C@H]1O5` , reported %Inh@MaxDose: 87.3%

Entry `C=C1CC[C@@]2(O)C3Cc4ccc(OCOC(=O)CCCCCCCCCCC)c5c4[C@@]2(CCN3CC2CC2)[C@H]1O5` — recorded %Inh@MaxDose = 83.1%
